Just for reference, paper PMC9482650 is where these values come from.

tested system: T1, DLG3_1, Q92796
T1 sequence (Q92796 125-227, limits assumed, looked up): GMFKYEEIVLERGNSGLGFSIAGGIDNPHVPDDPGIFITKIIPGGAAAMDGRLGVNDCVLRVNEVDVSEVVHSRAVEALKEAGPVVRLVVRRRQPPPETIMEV
test: holdup assay
Set-up: key: below the threshold = too weak to quantify, mostly under pKd 3.1 to 4
settings: plain residues with an end cap or a label only (N-terminal biotin on a linker: ado-ado)
measured endpoint: pKd
Numbers only.

binder: VLYPREGTEV [FOXI1, Q12951]
pKd: 4.03

# input Record request: pKd value, item TGLWKHETTV [ADGRA3, Q8IWK6]
# output 4.69
